Numbers sourced from the supplement of paper PMC10065799.

# Tested on: c-Abl (mouse)
# EXPERIMENT DESCRIPTION: phosphorylation enrichment, bacterial display (enrichment ratio); higher = better substrate or ligand; peptides without Tyr show the background
QUANTITY NAME: phosphorylation enrichment
The answer should be a number; do not append a unit.

These solved cases illustrate the format of a correct answer.
1) LDYNEYFRDLN [HPRT1_Y198]: 1.13
2) GQECEYPPTQD [METAP2_Y137]: 1.06
3) TRHDEYLEVTK [MAP1A_Y2217]: 0.612
4) DRLASYLDKLR [KRT12_Y139_V143L]: 0.868
5) DKITQYVEEVK [STX2_Y49]: 0.698
6) IGEVVYQRAAM [GRIN2A_Y502_V506A]: 5.89

Entry KLIMECLPFGS [JAK2_Y931_Y931C_YF] : reported phosphorylation enrichment = ? 0.96

Again, but for KVFRVYQGQQP [MUTYH_Y494] 0.413

Again, but for RLAKTYETTLE [ALB_Y377] 0.955

Again, but for HFVDEYDPTIE [KRAS_Y32] 1.33

Again, but for AVAFVYFKSIG [ADGRL4_Y301_YF] 0.938

###

# TARGET OR TEST SYSTEM: MERTK (UniProt Q12866)
# Sequence (Q12866 whole entry, looked up): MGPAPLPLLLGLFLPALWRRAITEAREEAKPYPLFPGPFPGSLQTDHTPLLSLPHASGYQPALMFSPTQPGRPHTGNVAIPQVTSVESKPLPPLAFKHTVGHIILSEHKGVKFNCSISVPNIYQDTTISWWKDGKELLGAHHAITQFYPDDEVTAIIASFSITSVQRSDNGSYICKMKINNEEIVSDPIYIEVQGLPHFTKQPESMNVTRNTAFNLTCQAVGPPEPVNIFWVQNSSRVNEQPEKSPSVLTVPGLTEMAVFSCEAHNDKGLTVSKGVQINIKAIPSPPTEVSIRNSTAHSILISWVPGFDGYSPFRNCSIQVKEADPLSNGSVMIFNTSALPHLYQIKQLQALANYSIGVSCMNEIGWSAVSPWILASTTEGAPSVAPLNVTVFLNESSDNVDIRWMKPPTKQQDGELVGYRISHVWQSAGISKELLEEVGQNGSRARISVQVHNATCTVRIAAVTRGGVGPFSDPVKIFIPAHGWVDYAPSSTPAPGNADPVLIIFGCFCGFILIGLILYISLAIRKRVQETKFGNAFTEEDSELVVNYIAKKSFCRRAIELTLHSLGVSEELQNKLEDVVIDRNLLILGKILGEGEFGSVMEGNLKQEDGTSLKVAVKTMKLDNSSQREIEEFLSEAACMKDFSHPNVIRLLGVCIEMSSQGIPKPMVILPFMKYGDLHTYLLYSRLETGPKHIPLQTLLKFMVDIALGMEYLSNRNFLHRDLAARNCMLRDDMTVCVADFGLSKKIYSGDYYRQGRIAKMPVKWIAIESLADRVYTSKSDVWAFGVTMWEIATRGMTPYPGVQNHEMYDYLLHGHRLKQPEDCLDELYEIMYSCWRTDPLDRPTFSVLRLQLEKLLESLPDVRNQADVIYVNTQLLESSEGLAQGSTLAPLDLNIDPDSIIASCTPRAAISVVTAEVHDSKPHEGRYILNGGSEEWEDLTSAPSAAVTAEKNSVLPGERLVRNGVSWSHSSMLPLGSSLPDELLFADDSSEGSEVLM
# EXPERIMENT DESCRIPTION: phosphorylation enrichment, bacterial display (enrichment ratio); higher = better substrate or ligand; peptides without Tyr show the background
Here, each record is paired with measured phosphorylation enrichment data.
The answer should be a number; do not append a unit.

Lab note: need phosphorylation enrichment for HKLSFYEFDFE [BTK_Y40_YF] on MERTK (UniProt Q12866), anyone have it? 1.75

Again, but for CTTNHYNYMCN [TP53_Y234_I232N] 0.398

###

# Test system: c-Src
# EXPERIMENT DESCRIPTION: phosphorylation enrichment, bacterial display (enrichment ratio); higher = better substrate or ligand; peptides without Tyr show the background
Here, each record is paired with measured phosphorylation enrichment data.
The answer should be a number; do not append a unit.

1. NKVFTYIFIME [SCN4A_Y1074_D1069N]: 0.487

Lab note: need phosphorylation enrichment for VITTLYIGFLG [KCNQ1_Y267_L262V] on c-Src, anyone have it? 1.84

Again, but for YNDSAYNQQLI [ZPLD1_Y198_T197A] 0.418

Again, but for EAAFVYAISSA [WNT4_Y113] 2.79

Again, but for KDAGDYKFKAK [LRIT3_Y326_C328Y_YF] 0.305

Again, but for EPGSLYGCGGG [ATM_Y2019_D2016G] 0.918

Again, but for KEKLCYVALDF [ACTA1_Y220] 1.81

Again, but for TPGPNYRPGYN [USH2A_Y463] 0.309

Again, but for PLFRKYWPNHI [GREB1L_Y1560_YF] 0.491

Again, but for RLAKTYETTLE [ALB_Y377] 0.758

Again, but for FIILIYAMKKK [SLCO1B1_Y645_YF] 0.32

###

Here, each record is paired with measured SH2 binding enrichment data.
# TARGET OR TEST SYSTEM: c-Src SH2;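 also: peptide library displayed on the E. coli surface as eCPX fusions, selected cells deep-sequenced, score is each peptide's frequency after selection divided by its frequency in the input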
# EXPERIMENT DESCRIPTION: SH2 binding enrichment of the phosphorylated peptide, bacterial display (enrichment ratio); higher = better substrate or ligand; peptides without Tyr show the background
The answer should be a number; do not append a unit.

These solved cases illustrate the format of a correct answer.
1) FSTPPYLLEAA [BRIP1_Y921_S919P_YF]: 0.607
2) AAVDEYLEFRR [FAM221A_Y17_YF]: 0.559

Moving on to the next sequence.
Lab note: need SH2 binding enrichment for VLPIDYYFPPQ [AR_Y552] on c-Src SH2, anyone have it? 1.03

###

# TARGET OR TEST SYSTEM: Jak2 (UniProt O60674)
# Sequence (O60674 whole entry, looked up): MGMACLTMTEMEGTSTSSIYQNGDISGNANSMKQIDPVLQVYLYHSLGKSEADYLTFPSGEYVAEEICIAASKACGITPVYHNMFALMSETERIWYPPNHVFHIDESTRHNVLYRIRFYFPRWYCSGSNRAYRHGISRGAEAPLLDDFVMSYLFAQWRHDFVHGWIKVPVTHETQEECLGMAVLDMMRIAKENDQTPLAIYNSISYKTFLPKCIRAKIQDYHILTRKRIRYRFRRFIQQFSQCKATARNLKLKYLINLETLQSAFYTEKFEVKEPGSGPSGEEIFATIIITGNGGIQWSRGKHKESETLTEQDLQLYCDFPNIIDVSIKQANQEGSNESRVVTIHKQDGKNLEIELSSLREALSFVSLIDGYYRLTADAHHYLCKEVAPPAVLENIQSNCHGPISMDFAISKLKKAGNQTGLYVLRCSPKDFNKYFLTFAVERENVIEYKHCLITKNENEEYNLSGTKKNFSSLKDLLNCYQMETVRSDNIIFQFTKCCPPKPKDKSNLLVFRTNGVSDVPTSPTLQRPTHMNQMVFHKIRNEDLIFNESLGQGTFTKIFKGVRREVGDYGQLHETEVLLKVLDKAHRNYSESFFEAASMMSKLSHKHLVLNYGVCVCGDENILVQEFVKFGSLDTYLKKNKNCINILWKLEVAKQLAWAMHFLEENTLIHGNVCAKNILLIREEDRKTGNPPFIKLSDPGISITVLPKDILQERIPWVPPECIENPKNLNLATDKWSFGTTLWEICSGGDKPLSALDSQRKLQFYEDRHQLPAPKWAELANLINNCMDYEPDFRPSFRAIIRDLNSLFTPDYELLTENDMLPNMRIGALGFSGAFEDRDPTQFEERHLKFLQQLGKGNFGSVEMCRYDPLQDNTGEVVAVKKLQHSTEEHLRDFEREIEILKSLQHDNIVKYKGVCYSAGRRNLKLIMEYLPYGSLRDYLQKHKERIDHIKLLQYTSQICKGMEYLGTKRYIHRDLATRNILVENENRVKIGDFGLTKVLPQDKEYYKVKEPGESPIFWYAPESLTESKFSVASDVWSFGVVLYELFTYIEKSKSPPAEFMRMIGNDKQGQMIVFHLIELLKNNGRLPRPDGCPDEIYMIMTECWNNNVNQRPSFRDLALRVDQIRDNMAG
# EXPERIMENT DESCRIPTION: phosphorylation enrichment, bacterial display (enrichment ratio); higher = better substrate or ligand; peptides without Tyr show the background
Here, each record is paired with measured phosphorylation enrichment data.
The answer should be a number; do not append a unit.

1. NPSFNYEIVNQ [DYNC1H1_Y3379_R3384Q_YF]: 1.13
2. LEIETCRRLLD [KRT12_Y429_Y429C]: 1.07
3. PEVSGYCHYAD [TG_Y234_C237Y]: 1.04
4. PLFRKYWPNHI [GREB1L_Y1560_YF]: 0.695
5. PGLSSYGVPAS [FLNB_Y1530]: 0.599

Entry TKLKDYYIFNK [CCDC42_Y149_A144T] : reported phosphorylation enrichment = ? 1.49

Again, but for SETSRYLSDLF [KCNJ3_Y67] 1.17

Again, but for GQECEYPPTQD [METAP2_Y137] 1.24

###

Here, each record is paired with measured phosphorylation enrichment data.
# TARGET OR TEST SYSTEM: Jak2 (UniProt O60674)
# EXPERIMENT DESCRIPTION: phosphorylation enrichment, bacterial display (enrichment ratio); higher = better substrate or ligand; peptides without Tyr show the background
The answer should be a number; do not append a unit.

These solved cases illustrate the format of a correct answer.
1. ILCTVYAFKTR [GRM3_Y754]: 1.33
2. SMEGLYSSTQD [CLIC5_Y111]: 1.36
3. IGEGTYGVVYK [CDK2_Y15]: 0.756
4. VEEDTYTMPST [PTK2_Y407_D402V]: 1.12
5. DHYNQYEQQKM [CHD7_Y75]: 0.782
6. GRIHSYRGHLW [VHL_Y112_R107G]: 0.535
7. ASGKYYAMKIL [AKT3_Y174]: 0.662
8. QSSALYEDCYL [ASS1_Y83_R86C]: 1.5

Entry KDFETYQPFQN [CTNND2_Y1157_YF] : reported phosphorylation enrichment = ? 0.869

Again, but for VNNTVYGIDAM [EIF3J_Y143_A141T] 0.696

Again, but for SHSMKYFDTAV [HLA-C_Y31_R30K] 0.785

Again, but for PADQAYSWYQH [NDST1_Y711_R709Q] 0.765

Again, but for LLILEYAKYGS [RET_Y806_V804L] 1.5

Again, but for FGRTFYNQANM [MCCC2_Y196_I200N] 0.994

Again, but for LLSISYVGCSL [ADGRD1_Y571_S567L] 1.77

Again, but for QQLQGYVPSNF [FRK_Y99_I100V_YF] 1.52

Again, but for GVPLGYPIKAP [ELN_Y206] 0.534

Again, but for PVKSEYPSIKL [NPC2_Y119] 0.557

###

# Test system: AncSZ
# EXPERIMENT DESCRIPTION: phosphorylation enrichment, bacterial display (enrichment ratio); higher = better substrate or ligand; peptides without Tyr show the background
Classify by measured phosphorylation enrichment: Condition met if it is equal to or exceeds 1, Condition not met if it is smaller.

Answered cases to consult:
1. DEGVNYFMSKG [FBXO8_Y156]: Condition met
2. DPADRYLIEQC [CDKL5_Y286_T288I]: Condition met
3. YFRDGHMPRQY [GSS_Y270_Y270H]: Condition not met
4. LVLIKYLPEWT [PSEN1_Y240_F237L]: Condition met
5. ATARPYSPYII [LRP5_Y1528_R1529S]: Condition not met

Okay, now this sequence:
Could you tell me if the measured phosphorylation enrichment of PSQRPYVYYYS [PTEN_Y174_R173P] reaches 1 or more? Condition met

###

# TARGET OR TEST SYSTEM: FGFR1 (UniProt P11362)
# Sequence (P11362 whole entry, looked up): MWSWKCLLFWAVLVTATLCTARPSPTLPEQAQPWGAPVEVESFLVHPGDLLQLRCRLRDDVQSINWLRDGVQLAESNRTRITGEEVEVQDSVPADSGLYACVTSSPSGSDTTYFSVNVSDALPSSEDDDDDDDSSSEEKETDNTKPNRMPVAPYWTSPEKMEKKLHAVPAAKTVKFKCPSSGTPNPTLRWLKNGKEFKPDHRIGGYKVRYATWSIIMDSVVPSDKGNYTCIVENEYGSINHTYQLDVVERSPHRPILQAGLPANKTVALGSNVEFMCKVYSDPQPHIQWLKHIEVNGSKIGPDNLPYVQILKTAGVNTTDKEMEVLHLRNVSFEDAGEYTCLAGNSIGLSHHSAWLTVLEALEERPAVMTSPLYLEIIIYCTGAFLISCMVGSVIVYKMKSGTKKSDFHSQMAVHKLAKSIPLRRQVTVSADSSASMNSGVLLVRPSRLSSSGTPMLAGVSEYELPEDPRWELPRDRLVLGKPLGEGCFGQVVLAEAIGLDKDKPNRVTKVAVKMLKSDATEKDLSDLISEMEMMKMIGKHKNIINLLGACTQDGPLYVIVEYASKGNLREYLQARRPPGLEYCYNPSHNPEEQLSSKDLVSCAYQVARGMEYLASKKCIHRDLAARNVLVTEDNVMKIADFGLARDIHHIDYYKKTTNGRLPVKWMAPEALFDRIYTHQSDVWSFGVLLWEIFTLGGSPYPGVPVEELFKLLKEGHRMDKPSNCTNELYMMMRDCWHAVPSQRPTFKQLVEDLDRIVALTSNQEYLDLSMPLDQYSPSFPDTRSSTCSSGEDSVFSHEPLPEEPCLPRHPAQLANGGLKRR
# EXPERIMENT DESCRIPTION: phosphorylation enrichment, bacterial display (enrichment ratio); higher = better substrate or ligand; peptides without Tyr show the background
Here, each record is paired with measured phosphorylation enrichment data.

These solved cases illustrate the format of a correct answer.
1) MDYRSYPREYG [RBM10_Y44]: 0.404
2) QDLLLYQTHSE [PKHD1_Y255_F253L]: 0.713
3) VKPHRYRPGTV [H3-5_Y41]: 0.407
4) ESDYTYSSSYE [SRPK2_Y427]: 1.12
5) AGQEDYDRLRP [CDC42_Y64]: 0.576

Lab note: need phosphorylation enrichment for VGGRIYIDDGL [PKLR_Y218] on FGFR1 (UniProt P11362), anyone have it? 0.575

Again, but for PKFHSYVSLPF [PLXNA2_Y293] 1.86

Again, but for ASNNPYFRDQA [RPGRIP1_Y846] 0.443

Again, but for TVFSDYLHPQY [CCPG1_Y569] 0.699

Again, but for EKQVAYCPSGR [ROS1_Y2323_K2328R] 0.531

###

# TARGET OR TEST SYSTEM: EPHB2 (UniProt P29323)
# Sequence (P29323 whole entry, looked up): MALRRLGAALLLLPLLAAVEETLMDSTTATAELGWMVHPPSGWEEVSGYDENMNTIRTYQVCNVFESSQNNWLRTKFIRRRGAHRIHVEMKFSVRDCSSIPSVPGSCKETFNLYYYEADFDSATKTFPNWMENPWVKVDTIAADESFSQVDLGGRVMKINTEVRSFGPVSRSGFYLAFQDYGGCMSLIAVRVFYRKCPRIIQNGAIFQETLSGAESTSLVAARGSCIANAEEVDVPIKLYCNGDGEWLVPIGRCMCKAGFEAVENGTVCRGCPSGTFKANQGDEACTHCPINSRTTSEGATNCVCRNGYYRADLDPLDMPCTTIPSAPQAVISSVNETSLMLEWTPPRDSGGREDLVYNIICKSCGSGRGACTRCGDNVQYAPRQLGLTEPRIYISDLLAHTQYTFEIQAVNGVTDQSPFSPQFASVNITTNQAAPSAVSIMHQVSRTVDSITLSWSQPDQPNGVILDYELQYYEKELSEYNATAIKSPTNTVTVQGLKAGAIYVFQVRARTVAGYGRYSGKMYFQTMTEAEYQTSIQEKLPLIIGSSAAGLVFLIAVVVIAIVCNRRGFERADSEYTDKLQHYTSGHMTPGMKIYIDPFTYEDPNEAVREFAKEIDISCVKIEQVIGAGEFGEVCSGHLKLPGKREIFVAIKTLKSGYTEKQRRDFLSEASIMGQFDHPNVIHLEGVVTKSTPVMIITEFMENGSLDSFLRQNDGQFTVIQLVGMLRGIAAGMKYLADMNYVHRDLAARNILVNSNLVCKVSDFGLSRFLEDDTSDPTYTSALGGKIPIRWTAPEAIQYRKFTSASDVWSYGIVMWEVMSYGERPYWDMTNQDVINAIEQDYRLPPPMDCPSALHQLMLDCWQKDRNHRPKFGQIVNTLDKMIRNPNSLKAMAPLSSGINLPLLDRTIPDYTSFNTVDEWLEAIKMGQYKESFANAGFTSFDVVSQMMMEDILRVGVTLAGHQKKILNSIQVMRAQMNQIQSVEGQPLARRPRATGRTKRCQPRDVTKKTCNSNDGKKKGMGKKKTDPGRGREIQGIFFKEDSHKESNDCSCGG
# EXPERIMENT DESCRIPTION: phosphorylation enrichment, bacterial display (enrichment ratio); higher = better substrate or ligand; peptides without Tyr show the background
Here, each record is paired with measured phosphorylation enrichment data.
The answer should be a number; do not append a unit.

These solved cases illustrate the format of a correct answer.
1. INSLKYAYNIS [EIF2B5_Y583]: 0.368
2. FKNGDYSEVMK [LCT_Y1638_N1639S]: 0.877

Moving on to the next sequence.
Entry GGGGGYNCSSG [FUS_Y232_R234C] : reported phosphorylation enrichment = ? 0.432
